These entries and their values trace back to paper PMC10704561.

assay: UV-vis spectra and molar extinction coefficient in KMOPS buffer; format: physicochemical; conditions: 0.1 mM in KMOPS buffer, pH 7.2 (3d, 6c: 10 or 20% CH3CN added)
Short version: ε365 at least 5000 M^–1 cm^–1 is Fulfilled, less is Not fulfilled.

QUERY SMILES	CATEGORY
COc1cc(COc2ccc3[nH]cc(CCN)c3c2)nc2c(C#N)c(O)ccc12.O=C(O)C(F)(F)F	Fulfilled
CCCN(CCc1cccs1)[C@@H]1CCc2c(cccc2OCc2cc(OC)c3ccc(O)c(C#N)c3n2)C1	Not fulfilled
C=CCc1ccc(OCc2cc(OC)c3ccc(O)c(C#N)c3n2)c(OC)c1	Fulfilled
COc1cc(COc2ccc(CCN)cc2O)nc2c(C#N)c(O)ccc12.O=C(O)C(F)(F)F	Fulfilled
Cc1ccc(-c2cc(COc3cc(CCN)ccc3O)nc3c(C#N)c(O)ccc23)cc1.O=C(O)C(F)(F)F	Not fulfilled
COc1cc(-c2cc(COc3cc(CCN)ccc3O)nc3c(C#N)c(O)ccc23)cc(OC)c1OC.O=C(O)C(F)(F)F	Fulfilled
CCCCCCCCC(=O)NCc1ccc(OCc2cc(OC)c3ccc(O)c(C#N)c3n2)c(OC)c1	Not fulfilled
